# Procedure Details: Oral bioavailability in rat
# Format: ADME, organism-based
# Test Context: in vivo
# maps each entry to its bioavailability
Write down the numeric answer in % and omit the unit.

Q. Need bioavailability, item NC(CCCCB(O)O)(C(=O)O)C1CC2CCC(C1)N2Cc1ccc(Cl)c(Cl)c1 (racemic)
A. 0.25

Q. Need bioavailability, item NC(CCCCB(O)O)(C(=O)O)C1CCN(Cc2ccc(Cl)c(Cl)c2)CC1 (racemic)
A. 4.8

###

# Measurement Target: Arginase-1 (Homo sapiens, UniProt P05089)
# Sequence (P05089 whole entry): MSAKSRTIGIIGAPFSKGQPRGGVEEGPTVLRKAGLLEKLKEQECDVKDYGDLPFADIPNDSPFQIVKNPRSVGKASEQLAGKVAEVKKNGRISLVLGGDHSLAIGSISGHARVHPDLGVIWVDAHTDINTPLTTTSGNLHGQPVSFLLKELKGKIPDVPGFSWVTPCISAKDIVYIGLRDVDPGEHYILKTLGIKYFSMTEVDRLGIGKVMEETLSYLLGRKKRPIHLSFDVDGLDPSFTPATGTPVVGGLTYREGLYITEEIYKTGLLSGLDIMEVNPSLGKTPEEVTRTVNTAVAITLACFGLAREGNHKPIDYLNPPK
Measured Quantity: pIC50
Notebook: values listed as pIC50 are -log10 of the concentration (mol/L).

- Molecule: "NC(CCCCB(O)O)(C(=O)O)C1CC2CCC(C1)N2Cc1ccc(Cl)cc1 (racemic)"
  pIC50: 7.77
- Molecule: "Cc1ccc(S(=O)(=O)N2CCC(C(N)(CCCCB(O)O)C(=O)O)CC2)cc1 (racemic)"
  pIC50: 5.18
- Molecule: "CC(C)CCN1CCC(C(N)(CCCCB(O)O)C(=O)O)CC1 (racemic)"
  pIC50: 6.74
- Molecule: "NC(CCCCB(O)O)(C(=O)O)C1CC2CCC(C1)N2Cc1ccc(Cl)c(Cl)c1 (racemic)"
  pIC50: 7.68
- Molecule: "NC(CCCCB(O)O)(C(=O)O)C1CCN(C(=O)Nc2ccc(Cl)cc2)CC1 (racemic)"
  pIC50: 6.14
- Molecule: "NC(CCCCB(O)O)(C(=O)O)C1CC2CCC(C1)N2Cc1ccc(F)c(F)c1 (racemic)"
  pIC50: 7.66

Q. Need pIC50, item NC(CCCCB(O)O)(C(=O)O)C1CC2CCC(C1)N2 (racemic)
A. 7.10

Q. Need pIC50, item NC(CCCCB(O)O)(C(=O)O)C1CCN(CCc2ccc(Cl)cc2Cl)CC1 (racemic)
A. 6.68

Q. Need pIC50, item NC(CCCCB(O)O)(C(=O)O)C1CC2CCC(C1)N2Cc1ccccc1 (racemic)
A. 7.62

###

# Procedure Details: Bioavailability in ip dosed rat
# Format: ADME, organism-based
# Test Context: in vivo
# maps each entry to its bioavailability

- Compound: "NC(CCCCB(O)O)(C(=O)O)C1CC2CCC(C1)N2Cc1ccc(Cl)c(Cl)c1 (racemic)"
  bioavailability: "> 50%"

Q. Need bioavailability, item NC(CCCCB(O)O)(C(=O)O)C1CCN(C(=O)Nc2ccc(Cl)cc2)CC1 (racemic)
A. < 5%

Q. Need bioavailability, item Cc1ccc(S(=O)(=O)N2CCC(C(N)(CCCCB(O)O)C(=O)O)CC2)cc1 (racemic)
A. < 5%

Q. Need bioavailability, item NC(CCCCB(O)O)(C(=O)O)C1CC2CCC(C1)N2Cc1ccc(Cl)cc1 (racemic)
A. < 5%

Q. Need bioavailability, item CC(C)CCN1CCC(C(N)(CCCCB(O)O)C(=O)O)CC1 (racemic)
A. < 5%

Q. Need bioavailability, item NC(CCCCB(O)O)(C(=O)O)C1CCN(Cc2ccccc2)CC1 (racemic)
A. < 5%

Q. Need bioavailability, item NC(CCCCB(O)O)(C(=O)O)C1CCN(Cc2ccc(Cl)c(Cl)c2)CC1 (racemic)
A. > 50%
